test: probe aNOTCH2 binding on compound microarray – biochemical, small-molecule microarray, 635/667 nm fluorescence, primary screen (AID 1121); conditions: higher = more signal;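 note: score merges feature fluorescence read at 667 nm with its signal to noise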

| COMPOUND | composite z-score |
| --- | --- |
| COC(=O)[C@@]1(Cc2ccc(OC)cc2)[C@H]2c3cc(C(=O)N4CCCC4)n(Cc4ccc(C(F)(F)F)nc4)c3C[C@H]2CN1C(=O)c1ccccc1 | 0.0224 |
| O=C(NCCN1CCOCC1)[C@@H]1c2ccccc2C(=O)N(Cc2ccccc2C(F)(F)F)[C@H]1c1ccc(CO)cc1 | -0.108 |
| CC(C)(C)N1CC=CC23O[C@@H]4/C=C\CCCOC(=O)C4[C@H]2C(=O)N(CCCO)[C@@H]3C1=O (some centres undefined) | -0.0846 |
| CC(C)(C)N1CC=CC23O[C@@H]4C=CCOC(=O)[C@@H]4[C@H]2C(=O)N(CCO)[C@@H]3C1=O (some centres undefined) | -0.196 |

====

assay: JC-1 mitochondrial signal, unstimulated MM1S myeloma – cell-based, JC-1 fluorescence, 24 h, 100 nL compound, profiling panel (AID 1170); settings: MM1S mitochondrial potential, higher = more signal; note: test concentration not given here

| COMPOUND | z-score |
| --- | --- |
| COC(=O)[C@]1(Cc2ccccc2)N=C(c2ccc(OCCCO)cc2)O[C@@H]1c1ccccc1CN=[N+]=[N-] | -1.34 |
| CC(C)C(=C=CC[C@H](O)c1ccccc1OCCO)C[C@H](O)c1cc(Cl)cc(Cl)c1O | -1.07 |
| COc1ccc(C(=O)Nc2ccc(CN3C(=O)[C@@]4(O[C@@H](CCn5cc(CCO)nn5)[C@H]([Si](C)(C)c5ccc(OC)cc5)[C@H]4C)c4ccccc43)cc2)cc1 | -2.22 |
| COC(=O)[C@@]1(Cc2ccc(F)cc2)[C@H]2c3cc(C(=O)N4CCCC4)n(Cc4cc(F)cc5c4OCOC5)c3C[C@H]2CN1C(=O)c1ccccc1 | -0.744 |
| CC(C)N1C(=O)C[C@@](C(=O)NCCN2CCOCC2)(c2ccc([N+](=O)[O-])cc2)[C@H]1c1ccc(CO)cc1 | -0.672 |
| O=C(NC1CC1)[C@@H]1c2ccccc2C(=O)N(CC23CC4CC(CC(C4)C2)C3)[C@H]1c1ccc(CO)cc1 | -0.467 |
| C[N+](C)(C)CCCCNC(=O)[C@H]1C[C@H]2C(=O)N[C@@H](Cc3ccccc3)C(=O)N2[C@H]1c1cccc(OCCO)c1 | -0.4 |
| Cc1ccc(N2C(=O)c3ccccc3[C@](C)(C(=O)NCCCN(C)C)[C@@H]2c2ccc(CO)cc2)nc1 | -0.29 |
| O=C(NCCN1CCOCC1)[C@@H]1c2ccccc2C(=O)N(Cc2ccc(OC(F)(F)F)cc2)[C@H]1c1ccc(CO)cc1 | 0.745 |
| COC(=O)[C@@]1(Cc2ccc(OC)cc2)[C@H]2c3cc(C(=O)N4CCCC4)n(Cc4ccc(Cl)c(C(F)(F)F)c4)c3C[C@H]2CN1C(=O)c1ccccc1 | -1.63 |
| CC(=O)c1ccc(C(O)C2C=CC3C(=O)N(c4ccccc4)C(=O)C3N2Nc2ccc(C(C)C)cc2)cc1 (centres undefined) | -1.29 |
| C=CCOC(=O)[C@H]1[C@@H]2C(=O)O[C@@H](c3ccccc3)[C@@H](c3ccccc3)N2[C@@H](c2ccc(OCCOC(=O)[C@H]3C[C@H]4C(=O)N[C@@H](CC(C)C)C(=O)N4[C@H]3c3ccc(O)cc3)cc2)[C@]12C(=O)Nc1ccccc12 | -1.19 |
| O=C1C[C@@](C(=O)O)(c2ccc([N+](=O)[O-])cc2)[C@@H](c2ccc(CO)cc2)N1C1CCCCC1 | -0.247 |
| CC(C)(C)N1CC=CC23O[C@@H]4/C=C\CCCOC(=O)C4[C@H]2C(=O)N(CCCCCO)[C@@H]3C1=O (some centres undefined) | -0.00811 |

====

assay: S6 kinase pathway phospho-S6 level changes – cell-based, A549, cytoblot, luminescence, serum-stimulated, primary screen (AID 1158); details: 5 h, higher = more signal;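 note: serum-stimulated A549 lung adenocarcinoma cells; signal is phosphorylated S6 detected by cytoblot immunostaining with HRP secondary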
So basically: z-score at -0.3 or higher? That is condition met. Lower than -0.3? That is condition not met.

| MOLECULE | CLASS_LABEL |
| --- | --- |
| COC(=O)[C@@]1(Cc2ccc(OC)cc2)[C@H]2c3cc(C(=O)N4CCCC4)n(Cc4c(CO)[nH]cc(C)c4=O)c3C[C@H]2CN1C(=O)c1ccccc1 | condition met |
| O=C1O[C@H](c2ccccc2)[C@H](c2ccccc2)N2[C@H]1[C@@H](C(=O)N1CCN(c3ncccn3)CC1)[C@]1(C(=O)Nc3ccc(C#CCCO)cc31)[C@H]2c1ccc(O)cc1 | condition met |
| CC[C@@H]1C=C(C(=O)O)[C@H](c2ccc(OC)cc2)N1S(=O)(=O)c1ccc(C)cc1 | condition not met |
| CCCC[C@H]1C[C@@H]1[C@@H]1N(C(C)=O)[C@H](c2cccc(OC)c2)CC12CC2 | condition met |
| CCCCCC1=C2CNC(Cc3ccccc3)(C(=O)OC)C=C2C(C)C1=O (configuration not stated) | condition met |
| CCOC(=O)C[C@H]1[C@H](OC(=O)c2ccccc2-c2ccccc2)[C@@H](NC(=O)C2CCCCC2)c2cc(OCCCO)ccc2N1C(=O)c1ccc2ccccc2n1 | condition not met |
| CC(C)(C)OC(=O)CC[C@]1(C(=O)NCC(O)CO)N=C(c2ccc(OCCCO)cc2)O[C@H]1c1ccccc1N=[N+]=[N-] (some centres not stated) | condition not met |
| COc1ccc([Si](C)(C)[C@@H]2[C@@H](CC(=O)N(CCO)Cc3ccccc3)O[C@]3(C(=O)N(Cc4ccc(N5C(=O)c6cccc7cccc5c67)cc4)c4ccccc43)[C@H]2C)cc1 | condition met |
| CN1C(=O)C2C=CC(C(O)c3ccc(-c4ccccc4)s3)N(NC(=O)OC(C)(C)C)C2C1=O (configuration not stated) | condition not met |
| COc1ccc(C(=O)Nc2ccc3c(c2)[C@@]2(O[C@H](CCO)[C@@H]([Si](C)(C)c4ccc(OC)cc4)[C@@H]2C)C(=O)N3Cc2ccccc2)cc1 | condition met |
| Cc1ccc(C(C)CC(O)C2C=CC3C(=O)N(C)C(=O)C3N2Nc2ccccc2)o1 (configuration not stated) | condition not met |
| CC=CC(O)C1C=CC2C(=O)NC(=O)C2N1Nc1ccc(Cl)cc1Cl (configuration not stated) | condition not met |
| C=CCOC(=O)[C@H]1[C@@H]2C(=O)O[C@@H](c3ccccc3)[C@@H](c3ccccc3)N2[C@@H](c2ccc(OCCOC(=O)[C@H]3C[C@H]4C(=O)N[C@@H](CC(C)C)C(=O)N4[C@H]3c3ccc(O)cc3)cc2)[C@]12C(=O)Nc1ccccc12 | condition met |
| CCCCCCc1nc(-c2ccc(-c3ccc(Cl)c(Cl)c3)o2)cc2c1[Si](C(C)C)(C(C)C)OC2 | condition met |
| COC(=O)[C@@]1(Cc2ccccc2)[C@H]2c3cc(C(=O)N4CCCC4)n(Cc4ccc(OC)c(OC)c4)c3C[C@H]2CN1C(=O)c1ccccc1 | condition not met |
| O=C1C=C(c2ccccc2)C(=O)C2=C1CC([C@H]1Oc3ccccc3S(=O)(=O)N3CCC[C@@H]13)=CC2 | condition met |
| CC(C)N1C(=O)C[C@@](C(=O)NCCN2CCOCC2)(c2ccc([N+](=O)[O-])cc2)[C@H]1c1ccc(CO)cc1 | condition met |
| O=C1C2C=CC(C(O)c3c(F)cccc3Cl)N(Nc3ccc([N+](=O)[O-])cc3)C2C(=O)N1c1ccccc1 (configuration not stated) | condition met |
| CC(C)NC(=O)[C@@H]1c2ccccc2C(=O)N(Cc2ccccc2C(F)(F)F)[C@H]1c1ccc(CO)cc1 | condition met |
| COc1ccc(C(=O)Nc2cccc(CN3C(=O)[C@@]4(O[C@@H](CC(=O)N5CCC[C@H]5CO)[C@H]([Si](C)(C)c5ccc(OC)cc5)[C@H]4C)c4ccccc43)c2)cc1 | condition met |
| CC(=O)NCCCC[C@@H]1NC(=O)[C@H]2C[C@@H](C(=O)NCCCCCCNC(=O)CS)[C@@H](c3cccc(OCCO)c3)N2C1=O | condition not met |
| COCCOC(=O)N1C(=O)[C@@]2(c3cc(C#CCC(C(=O)OC)C(=O)OC)ccc31)[C@H](c1ccc(O)cc1)N1[C@H](c3ccccc3)[C@H](c3ccccc3)OC(=O)[C@H]1[C@@H]2C(=O)Nc1nc2ccccc2s1 | condition met |
| Cc1ccc(F)cc1S(=O)(=O)N[C@H]1CCN(Cc2ccc(OC(C)C)cc2)C1 | condition met |
| Cc1ccc(S[C@]2(C(=O)NC(C)C)CC(=O)N(C3CCCCC3)[C@@H]2c2ccc(CO)cc2I)cc1 | condition met |
| COc1ccc([Si](C)(C)[C@@H]2[C@@H](CC(=O)N3CCC[C@H]3CO)O[C@]3(C(=O)N(Cc4ccc(N5CCOC5=O)cc4)c4ccccc43)[C@H]2C)cc1 | condition met |
| COc1ccc([Si](C)(C)[C@@H]2[C@@H](CC(=O)N3CCC[C@H]3CO)O[C@]3(C(=O)N(Cc4cccc(N5CCCCC5=O)c4)c4ccccc43)[C@H]2C)cc1 | condition met |
| CC1CC/C=C\[C@H]2OC34C=CCN(c5ccc6ccccc6c5)C(=O)[C@H]3N(C(C)CO)C(=O)[C@@H]4C2C(=O)O1 (some centres not stated) | condition not met |
